For each entry below, report its Plant response rating, Wheat value.
Tested on: wheat
procedure text: Test B pre/postemergence wheat
Assay type: in vivo, Triticum aestivum
condition context: Preemergence, Rate 62 g/ha; scale of 0 to 10 where 0 is no effect and 10 is complete control
Protocol: […] At the same time, these crop and weed species were also treated with postemergence applications of test chemicals formulated in the same manner. […] Treated plants and controls were maintained in a greenhouse for twelve to sixteen days, after which all species were compared to controls and visually evaluated. […]
Numbers only.

structure_smiles_string=CCCCCn1c(=O)on(C(=O)N(c2ccc(Cl)cc2)C(C)C)c1=O measured_property="Plant response rating, Wheat" assay_result=0
structure_smiles_string=CCOC(=O)C=C(Cn1c(=O)on(C(=O)N(c2ccc(F)cc2F)C(C)C)c1=O)OCC measured_property="Plant response rating, Wheat" assay_result=0

Given the entry CC(C)N(C(=O)n1oc(=O)n(CC2=NOCCC2)c1=O)c1ccc(Cl)cc1 , report its measured Plant response rating, Wheat.
0

---

Test system: pigweed
procedure text: Test B pre/postemergence pigweed
Format: in vivo, Amaranthus retroflexus
condition context: Rate 125 g/ha; Preemergence; scale of 0 to 10 where 0 is no effect and 10 is complete control
measured property: Redroot pigweed plant response rating
Give bare numbers.

Below are worked cases with known answers.
structure_smiles_string=CC(C)=CCn1c(=O)on(C(=O)N(c2ccc(F)cc2)C(C)C)c1=O measured_property="Redroot pigweed plant response rating" assay_result=0
structure_smiles_string=CC(C)N(C(=O)n1oc(=O)n(C2CCCC2)c1=O)c1ccc(F)cc1F measured_property="Redroot pigweed plant response rating" assay_result=6
structure_smiles_string=CC(C)N(C(=O)n1oc(=O)n(CC#C[Si](C)(C)C)c1=O)c1ccc(F)cc1 measured_property="Redroot pigweed plant response rating" assay_result=4

# evaluate next
Could you share what Redroot pigweed plant response rating was measured for CC(C)N(C(=O)n1oc(=O)n(C2CC2)c1=O)c1ccc(Cl)cc1 , tested on pigweed?
0

---

Tested on: smallflower flatsedge
procedure text: Test B flood test smallflower flatsedge
Assay type: in vivo, Cyperus difformis
condition context: Pre-emergence, Rate 1000 g/ha; scale 0 to 10 (0 no effect, 10 complete control)
Exercise: state measured S. Flatsedge plant response rating for each of the compounds provided.
One number for each entry.

Worked set:
compound=CC(C)N(C(=O)n1oc(=O)n(Cc2cccs2)c1=O)c1ccccc1 measured_property="S. Flatsedge plant response rating" assay_result=0
compound=Cc1cccc(C)c1-n1c(=O)on(C(=O)N(c2ccccc2)C(C)C)c1=O measured_property="S. Flatsedge plant response rating" assay_result=0
compound=COc1ccc(-n2c(=O)on(C(=O)N(c3ccc(F)cc3)C(C)C)c2=O)c(C)c1 measured_property="S. Flatsedge plant response rating" assay_result=0
compound=C=CCn1c(=O)on(C(=O)N(c2ccccc2)C(C)C)c1=O measured_property="S. Flatsedge plant response rating" assay_result=0
compound=CCn1c(=O)on(C(=O)N(c2ccc(Cl)cc2)C(C)C)c1=O measured_property="S. Flatsedge plant response rating" assay_result=0

Now look at this entry.
Please report the recorded S. Flatsedge plant response rating for COC(=O)C(c1ccccc1)n1c(=O)on(C(=O)N(c2ccc(F)cc2)C(C)C)c1=O (stereo not drawn) .
0

---

Test system: soybean
procedure text: Test B pre/postemergence soybean
Format: in vivo, Glycine max
condition context: Postemergence, Rate 125 g/ha; scale 0 to 10, 0 is no effect, 10 is complete control
measured property: Soybean plant response rating
Answers are plain numbers.

compound="C=CCCCn1c(=O)on(C(=O)N(c2ccc(F)cc2F)C(C)C)c1=O [Compound 516]" target_under_test=soybean measured_property="Soybean plant response rating" assay_result=4
compound="CC(C)N(C(=O)n1oc(=O)n(CCc2ccccc2)c1=O)c1ccc(F)cc1F [Compound 508]" target_under_test=soybean measured_property="Soybean plant response rating" assay_result=4
compound="CC(C)=CCn1c(=O)on(C(=O)N(c2ccc(Cl)cc2)C(C)C)c1=O [Compound 545]" target_under_test=soybean measured_property="Soybean plant response rating" assay_result=1

Answer for every listed entry: what is its Soybean plant response rating? The entries follow.
1. CCc1nc(C)c(Cn2c(=O)on(C(=O)N(c3ccc(Cl)cc3)C(C)C)c2=O)s1 [Compound 499]
2. CCCCCn1c(=O)on(C(=O)N(c2ccc(Cl)cc2)C(C)C)c1=O [Compound 528]

[1, 3]
